- System: K4 kissing-loop RNA reporter;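 note: bound reporter read as fluorescence of individual clusters on recovered sequencing chips by microscopy, with normalized cluster intensities fitted with a binding model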
- Assay Info: apparent KD of K4 kissing-loop reporter; higher = weaker reporter binding
- Measurement Conditions: Eterna round: R107; input ligand: theophylline 20 uM
Recorded apparent KD of K4 kissing-loop reporter, one value per entry.
Measurement Type: apparent KD of K4 kissing-loop reporter (nM)

[
  {
    "Sequence Content": "UUCGAAAGUCGAAGGAGCGCUGUCGGUCAUAGACCAUAUCUGUAGUGAUGUUACAGAUGACAGCAGGUAGGUCGCGACAGAGACA [Arg B SS t18]",
    "Measurement Type": "apparent KD of K4 kissing-loop reporter",
    "Unit Of Measurement": "nM",
    "Observed Value": 144
  },
  {
    "Sequence Content": "GUAGACGUACCUUCAGUGAUGUUGAAGGAUACCAGAUGUUACCACAUCCCUUGGCAGCCUUGGGAUAACAGUGAGUUGGAAUAUG [Usrite]",
    "Measurement Type": "apparent KD of K4 kissing-loop reporter",
    "Unit Of Measurement": "nM",
    "Observed Value": 156
  },
  {
    "Sequence Content": "GCCGUAGAUGGAAGGAGCGUGGUUAAUGUAAGUGAUGUUUACGAGGUCAACAAUUGACCGCCACAGGUAGGUCGCCAUCUACGGC",
    "Measurement Type": "apparent KD of K4 kissing-loop reporter",
    "Unit Of Measurement": "nM",
    "Observed Value": 53.1
  }
]

====

- Tested on: MS2 coat protein
- Assay Info: apparent KD of MS2 coat protein; higher = weaker reporter binding
- Measurement Conditions: Eterna round: R107; input ligand: theophylline 2 mM
The threshold is inclusive: apparent KD of MS2 coat protein of exactly 30 nM counts as 1; values below receive 0.

[
  {
    "Sequence Content": "AUGCAUAGCCGAAGGAGCGCAGUAGGAUGACAUGAGGAUCACCCAUGUGUGUGAUGUGGAUUGCAGGUAGGUCGCGGAGUGGUAU [Exclusion - Arginine B (Freestyle 5)]",
    "Classification": 1
  },
  {
    "Sequence Content": "CUAUUUAUAGCGGCCGCCACUUACUCAUGAGGUAACAACAUGAGGAUCACCCAUGUUUGAGGAUCAAGGACCGGGCUAUGGAUAG [AstrosSSTryB#12]",
    "Classification": 1
  },
  {
    "Sequence Content": "GUAGGUCUCAUGGGUGGACCUACACUGGAAGGAGCGAGCGAAAGCUCAGGUAGGUCGCCAGAAACAUGAGGAUCACCCAUGUAAU [(A)''-(M)'-(A)'-(Arg1)-(Arg2)-(M1)-(M2)_Design1]",
    "Classification": 1
  },
  {
    "Sequence Content": "GACCCAUGAGUUGUAAAAGCUCAUGGGUCGCGAGGACCGGUACGGCCGCCACUCGGCUGUACAUGAGGAUCACCCAUGUCAGGGU [#1 Same State - Tryptophan A Attempt #27 (HarryS)]",
    "Classification": 1
  },
  {
    "Sequence Content": "UUCAGCUAGUCGGCCGCCACUACAUGAGGAUCACCCAUGUAGGUCCACACUGCUUCGGCAGUGAGUAGGACCGGGACUAGCUGAG",
    "Classification": 0
  }
]

====

- System: MS2 coat protein
- Assay Info: apparent KD of MS2 coat protein; higher = weaker reporter binding
- Measurement Conditions: Eterna round: R107; input ligand: arginine 13.2 mM
Where apparent KD of MS2 coat protein equals or exceeds 90 nM, the correct label is MET; where it does not, the label is NOT MET.

[
  {
    "Sequence Content": "GGUUACUCUACGGCCGCCACUGGGCAUGUAAAUAACAUGAGGAUCACCCAUGUGGAAUAAAAUUACAGGACCGGGUAGUGUAACC [Tryptophan B 22]",
    "Study Target": "MS2 coat protein",
    "Classification": "MET"
  },
  {
    "Sequence Content": "UCGGGCAGAGCGGCCGCCACUGUUUGGCAUGCGGAUGAAGGAACAUGAGGAUCACCCAUGUAGAUUAGGACCGGGCUAGCGGAGA [sscsmullin]",
    "Study Target": "MS2 coat protein",
    "Classification": "NOT MET"
  },
  {
    "Sequence Content": "GGAAGGACAGUUGAUACCAGUUUCAAAGGCGGUAAUCACUACAUGAGGAUCACCCAUGUCAACCCUUGGCAGCAAUAGACCGUGG [theeternabot_exclusion_MS2_Theo_B_6]",
    "Study Target": "MS2 coat protein",
    "Classification": "NOT MET"
  },
  {
    "Sequence Content": "GGAUAGGACACGGCCGCCACUAGCUAGGAUACUAGCAACAUUUGGGUACAUGAGGAUCACCCAUGUAGGACCGGGUGUCCUAUCG",
    "Study Target": "MS2 coat protein",
    "Classification": "NOT MET"
  },
  {
    "Sequence Content": "GGCACAUAGUCGGCCGCCACUAGUGGGAAAUGGGAGAACAUGAGGAUCACCCAUGUAUUAUAGCCUAGGACCGGGACUAUGUGCC [Mammoth]",
    "Study Target": "MS2 coat protein",
    "Classification": "MET"
  },
  {
    "Sequence Content": "UUAUAAGUACCGGUCCUCAGAUCCUCAUGACGAGGACCGGUACGGCCGCCACUCGAAACAUGAGGAUCACCCAUGUAAUAAUAUU [Brourdmod07]",
    "Study Target": "MS2 coat protein",
    "Classification": "NOT MET"
  },
  {
    "Sequence Content": "ACGAUAGCACCUGAGGAUCACCCAGGUGAUACCAGCCUGGAAACAGGCCCUUGGCAGCACCUAAAAUAAAGGUAACUAUCGAAUA [TheoAX6 #MicroSwitchBubble #AlternativeMS2]",
    "Study Target": "MS2 coat protein",
    "Classification": "NOT MET"
  },
  {
    "Sequence Content": "UUCUUUAAGUCGGCCGCCACUGAAACAUGAGGAUCACCCAUGUAUAUUUGUGUAAAGGUGGAUUACAGGACCGGGACUAUAGUAA [JR_Nu23_ExcTryptoB_Sub024]",
    "Study Target": "MS2 coat protein",
    "Classification": "NOT MET"
  },
  {
    "Sequence Content": "UCAUGCAGGUCGGCCGCCACUACACACAUGAGGAUCACCCAUGUAGUUACUGGGUGAAGUGGCAGUAGGACCGGGACCUGCACAU [Brourdmod16]",
    "Study Target": "MS2 coat protein",
    "Classification": "MET"
  },
  {
    "Sequence Content": "UUUGAGAUAACAGAUACCAGCGUGUUAUAAAACAUGAGGAUCACCCAUGUAGUGAUCAAGCGCCCUUGGCAGCUGGUGUUUUAGG [7.H]",
    "Study Target": "MS2 coat protein",
    "Classification": "NOT MET"
  },
  {
    "Sequence Content": "UGACGAUACCUGGAUACCAGCGACAUGAGGAUCACCCAUGUAUGAGGAUCAGCCAUGUUAUGCCCUUGGCAGCCACGAAGGUCUU [CSCMULLIN]",
    "Study Target": "MS2 coat protein",
    "Classification": "NOT MET"
  }
]

====

- System: MS2 coat protein
- Assay Info: apparent KD of MS2 coat protein; higher = weaker reporter binding
- Measurement Conditions: Eterna round: R107; input ligand: theophylline 2 mM
Measurement Type: apparent KD of MS2 coat protein (nM)

[
  {
    "Sequence Content": "UAAUAAAUAAAUCCAAGGUGUAGGUCAGAUACCAGCCAGAUAACUGGCCCUUGGCAGCUGAAUAAACCUGAGGAACACCCAGGUA [TheoAS 24 #OpenEnded #MS2Late #AlternativeMS2]",
    "Unit Of Measurement": "nM",
    "Observed Value": 197
  },
  {
    "Sequence Content": "UGUAUGGACUGAAGGAGCGCCUCAAAUAACAUGAGGAUCACCCAUGUGGACAAAGUCCUUGGGCAGGUAGGUCGCAGUCCAUACU [ArgBX 5 #StaticStem #MS2Late]",
    "Unit Of Measurement": "nM",
    "Observed Value": 92.3
  },
  {
    "Sequence Content": "GGCACAUAGUCGGCCGCCACUAGUGGGAAAUGGGAGAACAUGAGGAUCACCCAUGUAUUAUAGCCUAGGACCGGGACUAUGUGCC [Mammoth]",
    "Unit Of Measurement": "nM",
    "Observed Value": 259
  },
  {
    "Sequence Content": "UCGGGCAGAGCGGCCGCCACUGUUUGGCAUGCGGAUGAAGGAACAUGAGGAUCACCCAUGUAGAUUAGGACCGGGCUAGCGGAGA [sscsmullin]",
    "Unit Of Measurement": "nM",
    "Observed Value": 18.4
  },
  {
    "Sequence Content": "GGACUAACCAGAAGGAGCGACGCGCAGAAACUGCAAAUUCCUCCACACGAGGAUCACCCGUGUCAGGUAGGUCGCUGGUUAGUCG",
    "Unit Of Measurement": "nM",
    "Observed Value": 16.1
  },
  {
    "Sequence Content": "GGUGGCUGGAUUGAUACCAGCCACCACCGAUAGACCACAUGAGGAUCACCCAUGUUGGGUGGCCCUUGGCAGCAGUCCAGCUGCC [#1 Same State - Theophylline B Attempt #9 (HarryS)]",
    "Unit Of Measurement": "nM",
    "Observed Value": 828
  }
]
